Target: B-Raf (V600E) (Homo sapiens (Human), UniProt P15056, V600E)
Sequence (P15056 whole entry V600E): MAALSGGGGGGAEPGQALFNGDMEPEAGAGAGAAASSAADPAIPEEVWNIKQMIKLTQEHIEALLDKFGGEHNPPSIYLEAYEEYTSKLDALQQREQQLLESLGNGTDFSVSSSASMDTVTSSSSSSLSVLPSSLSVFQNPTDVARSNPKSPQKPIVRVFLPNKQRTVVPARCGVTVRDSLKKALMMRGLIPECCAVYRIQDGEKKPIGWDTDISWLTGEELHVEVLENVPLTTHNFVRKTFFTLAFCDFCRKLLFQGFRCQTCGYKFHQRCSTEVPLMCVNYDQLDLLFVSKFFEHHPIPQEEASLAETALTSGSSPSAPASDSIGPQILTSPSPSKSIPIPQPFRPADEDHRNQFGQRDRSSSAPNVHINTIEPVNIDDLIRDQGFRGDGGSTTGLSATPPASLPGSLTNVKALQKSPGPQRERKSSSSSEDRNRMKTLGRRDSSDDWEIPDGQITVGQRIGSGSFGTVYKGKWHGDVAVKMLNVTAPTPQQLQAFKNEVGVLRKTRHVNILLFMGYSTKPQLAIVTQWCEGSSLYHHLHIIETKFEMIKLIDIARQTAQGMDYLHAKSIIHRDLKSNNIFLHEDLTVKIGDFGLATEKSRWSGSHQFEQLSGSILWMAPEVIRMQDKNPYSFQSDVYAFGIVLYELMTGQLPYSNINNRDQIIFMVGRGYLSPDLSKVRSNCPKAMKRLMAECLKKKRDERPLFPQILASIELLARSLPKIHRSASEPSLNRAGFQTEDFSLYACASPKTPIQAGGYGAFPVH
Experiment: Raf kinase assay (B-Raf (V600E)), [33P] incorporation into MEK1(K97R)
Assay type: biochemical
result type: IC50 (nM)

a: COc1ccc(-c2ccc3ncnc(Nc4cccc5[nH]ncc45)c3c2)cc1C=O
b: Fc1cccc(-c2ccc3ncnc(Nc4cccc5[nH]ncc45)c3c2)c1
stdin: Form: Entry with minimum IC50 (choose one): a / b Select an item and report its label.
stdout: a
(a: 105 nM, b: 280 nM)

a: CS(=O)(=O)Nc1cccc(-c2ccc3ncnc(Nc4cccc5[nH]ncc45)c3c2)c1
b: COc1cc(-c2ccc3ncnc(Nc4cc(O)c(Cl)cc4F)c3c2)ccc1O
c: COc1cc(-c2ccc3ncnc(Nc4cccc5[nH]c(=O)[nH]c45)c3c2)ccc1O
d: COc1cccc(-c2ccc3nccc(Nc4cccc5[nH]ncc45)c3c2)c1 [Compound 123]
stdin: Order the entries by their reported IC50, beginning at the minimum. Your task in answering is to list the labels in the requested order.
stdout: b, d, a, c
(b: 19.7 nM, d: 263 nM, a: 534 nM, c: 1090 nM)

a: COc1cc(-c2ccc3ncnc(Nc4cc(O)c(Cl)cc4Cl)c3c2)ccc1O
b: OCc1cccc(-c2ccc3ncnc(Nc4cccc5[nH]ncc45)c3c2)c1
stdin: Form: Entry with minimum IC50 (choose one): a / b Select an item and report its label.
stdout: a
(a: 59.9 nM, b: 551 nM)
